Biological target: BCL6 (Homo sapiens, UniProt P41182)
Construct: HiBiT-tag knocked into endogenous BCL6 locus using CRISPR; endogenous in cells; host or cells: DHL-4_BCL6_HiBiT cells (CRISPR knock-in)
Assay: BCL6_HiBiT degradation assay (2 h)
Type: cell-based
Settings: DHL-4_BCL6_HiBiT cells, read-out: YCon (% remaining maximal effect)
Experimental: A DHL-4 cell line with HiBiT-tag knocked into endogenous BCL6 locus using CRISPR was generated. The DHL-4_BCL6_HiBiT cells were dispensed into 384-well plates (Corning no. 3570) that were pre-spotted with compounds. […] After 30 min, luminescence was read on an Envision or PHERAstar luminescence reader. […]
MEASUREMENT_LABEL: Percent BCL6 remaining at maximal degradation (Ycon)

Examples from the recorded data:
[
  {
    "COMPOUND": "C[C@@H]1CN(c2ncc(Cl)c(Nc3ccc4c(c3)CC(=O)N4C)n2)CC[C@H]1Nc1ccc2c(N3CCC(=O)NC3=O)nn(C)c2c1 [Example 141]",
    "RESULT": "< 20%"
  },
  {
    "COMPOUND": "CC1CN(c2ccc3c(C4CCC(=O)NC4=O)nn(C)c3c2)C(=O)CN1c1ncc(Cl)c(Nc2ccc3c(c2)CC(=O)N3C)n1 (stereo not drawn) [Example 39]",
    "RESULT": "> 60%"
  },
  {
    "COMPOUND": "C[C@H]1CN(c2ncc(Cl)c(Nc3ccc4c(c3)CC(=O)N4C)n2)CC[C@@H]1Nc1ccc2c(C3CCC(=O)NC3=O)nn(C)c2c1 (stereo partly drawn) [Example 14]",
    "RESULT": "> 60%"
  }
]

// switching to the query compound
So what Percent BCL6 remaining at maximal degradation (Ycon) did C[C@@H]1CN(c2ncc(Cl)c(Nc3ccc4c(c3)N(C)C(=O)C4)n2)CC[C@H]1Nc1ccc2c(C3CCC(=O)NC3=O)nn(C)c2c1 (stereo partly drawn) [Example 61] get with BCL6 (Homo sapiens, UniProt P41182)? < 20%

====

biological target: BCL6 (Homo sapiens, UniProt P41182); construct: HiBiT-tag knocked into endogenous BCL6 locus using CRISPR; endogenous in cells; host or cells: DHL-4_BCL6_HiBiT cells (CRISPR knock-in); assay: BCL6_HiBiT degradation assay (2 h); format: cell-based; details: DHL-4_BCL6_HiBiT cells, read-out: YCon (% remaining maximal effect)
Measured Percent BCL6 remaining at maximal degradation (Ycon) accompanies every entry in the list below.

[
  {
    "COMPOUND": "C[C@@H]1CN(c2ncc(Cl)c(Nc3ccc4c(c3)CC(=O)N4C)n2)CC[C@H]1Nc1cc2c(cn1)c(C1CCC(=O)NC1=O)nn2C (stereo partly drawn)",
    "SYSTEM_UNDER_TEST": "BCL6 (Homo sapiens, UniProt P41182)",
    "RESULT": "< 20%"
  },
  {
    "COMPOUND": "CN1C(=O)Cc2cc(Nc3nc(N(C)C4CCN(c5ccc6c(C7CCC(=O)NC7=O)nn(C)c6c5)CC4)ncc3Cl)ccc21 (stereo not drawn)",
    "SYSTEM_UNDER_TEST": "BCL6 (Homo sapiens, UniProt P41182)",
    "RESULT": "> 60%"
  },
  {
    "COMPOUND": "CO[C@@H]1CN(c2ncc(Cl)c(Nc3ccc4c(c3)CC(=O)N4C)n2)CC[C@H]1Nc1ccc2c(C3(C)CCC(=O)NC3=O)nn(C)c2c1 (stereo partly drawn)",
    "SYSTEM_UNDER_TEST": "BCL6 (Homo sapiens, UniProt P41182)",
    "RESULT": "20 to 60%"
  },
  {
    "COMPOUND": "C[C@@H]1CN(c2ncc(C#N)c(Nc3cc(F)c4c(c3)CC(=O)N4C)n2)CC[C@H]1Nc1ccc2c(C3CCC(=O)NC3=O)nn(C)c2c1 (stereo partly drawn)",
    "SYSTEM_UNDER_TEST": "BCL6 (Homo sapiens, UniProt P41182)",
    "RESULT": "< 20%"
  },
  {
    "COMPOUND": "CC1CN(c2ncc(Cl)c(Nc3ccc4c(c3)CC(=O)N4C)n2)CC(=O)N1c1ccc2c(C3CCC(=O)NC3=O)nn(C)c2c1 (stereo not drawn)",
    "SYSTEM_UNDER_TEST": "BCL6 (Homo sapiens, UniProt P41182)",
    "RESULT": "> 60%"
  },
  {
    "COMPOUND": "CN1C(=O)Cc2cc(Nc3nc(NC4CCN(c5ccc6c(C7CCC(=O)NC7=O)nn(C)c6c5)C(=O)C4)ncc3Cl)ccc21 (stereo not drawn)",
    "SYSTEM_UNDER_TEST": "BCL6 (Homo sapiens, UniProt P41182)",
    "RESULT": "20 to 60%"
  }
]

Find the recorded Percent BCL6 remaining at maximal degradation (Ycon) belonging to C[C@@H]1CN(c2ncc(Cl)c(Nc3cnc4c(c3)CC(=O)N4C)n2)CC[C@H]1Nc1ccc2c(C3CCC(=O)NC3=O)nn(C)c2c1 (stereo partly drawn) and report it. 20 to 60%

Item CCN1C(=O)Cc2cc(Nc3nc(N4CC[C@@H](Nc5ccc6c(C7CCC(=O)NC7=O)nn(C)c6c5)[C@H](C)C4)ncc3Cl)ccc21 (stereo partly drawn) has what recorded Percent BCL6 remaining at maximal degradation (Ycon)? < 20%

I would be grateful if you could share the reported Percent BCL6 remaining at maximal degradation (Ycon) for Cn1nc(C2CCC(=O)NC2=O)c2ccc(NC3CCN(c4ncc(Cl)c(Nc5ccc6c(c5)CC(=O)N6)n4)CC3)cc21 (stereo not drawn) . > 60%

// query Percent BCL6 remaining at maximal degradation (Ycon) value for entry C[C@@H]1CN(c2ncc(Cl)c(Nc3cc4c(cc3F)N(C)C(=O)C4)n2)CC[C@H]1Nc1ccc2c([C@@H]3CCC(=O)NC3=O)nn(C)c2c1 (single isomer, unassigned) < 20%

Name the reported Percent BCL6 remaining at maximal degradation (Ycon) value associated with the compound CN1C(=O)Cc2cc(Nc3nc(N4CC[C@@H](Nc5ccc6c(C7CCC(=O)NC7=O)nn(C)c6c5)[C@H](O)C4)ncc3Cl)ccc21 (stereo partly drawn) < 20%

Item under review: CC1CCN(c2ncc(Cl)c(Nc3ccc4c(c3)CC(=O)N4C)n2)CCC1Nc1ccc2c(C3CCC(=O)NC3=O)nn(C)c2c1 (stereo not drawn) [Example 47] . Reported Percent BCL6 remaining at maximal degradation (Ycon)? > 60%

====

target: BCL6 (Homo sapiens, UniProt P41182); construct: HiBiT-tag knocked into endogenous BCL6 locus using CRISPR; endogenous in cells; host or cells: DHL-4_BCL6_HiBiT cells (CRISPR knock-in); experiment: BCL6_HiBiT degradation assay (2 h); format: cell-based; settings: DHL-4_BCL6_HiBiT cells, read-out: YCon (% remaining maximal effect)
Each record here notes measured Percent BCL6 remaining at maximal degradation (Ycon).

The cases that follow already have their Percent BCL6 remaining at maximal degradation (Ycon) on record.
[
  {
    "COMPOUND": "CN1C(=O)Cc2cc(Nc3nc(N4CCCC(Nc5ccc6c(C7CCC(=O)NC7=O)nn(C)c6c5)CC4)ncc3Cl)ccc21 (stereo not drawn) [Example 31]",
    "SYSTEM_UNDER_TEST": "BCL6 (Homo sapiens, UniProt P41182)",
    "RESULT": "> 60%"
  },
  {
    "COMPOUND": "CN1C(=O)Cc2cc(Nc3nc(N4CC[C@@H](Nc5ccc6c(C7CCC(=O)NC7=O)nn(C)c6c5)[C@@H](CO)C4)ncc3Cl)ccc21 (stereo partly drawn) [Example 57]",
    "SYSTEM_UNDER_TEST": "BCL6 (Homo sapiens, UniProt P41182)",
    "RESULT": "> 60%"
  }
]

So what's the measured Percent BCL6 remaining at maximal degradation (Ycon) for this one? COCCN1C(=O)Cc2cc(Nc3nc(N4CC[C@@H](Nc5ccc6c(C7CCC(=O)NC7=O)nn(C)c6c5)[C@H](C)C4)ncc3Cl)ccc21 (stereo partly drawn) [Example 75] < 20%

Requested field: Percent BCL6 remaining at maximal degradation (Ycon). Item: CN1C(=O)Cc2cc(Nc3nc(N4CCCN(c5ccc6c(C7CCC(=O)NC7=O)nn(C)c6c5)CC4)ncc3Cl)ccc21 (stereo not drawn) [Example 32] > 60%

Which Percent BCL6 remaining at maximal degradation (Ycon) value belongs to C[C@@H]1CN(c2ncc(Cl)c(Nc3ccc4c(c3)CC(=O)N4CC(C)(F)F)n2)CC[C@H]1Nc1ccc2c([C@H]3CCC(=O)NC3=O)nn(C)c2c1 (single isomer, unassigned) [Example 111] ? < 20%

// Percent BCL6 remaining at maximal degradation (Ycon) lookup, key: CN1C(=O)Cc2cc(Nc3nc(N4CC[C@@H](N(C)c5ccc6c(C7CCC(=O)NC7=O)nn(C)c6c5)[C@H](F)C4)ncc3Cl)ccc21 (stereo partly drawn) [Example 46] > 60%
